Attribute: EC50
Target: S. pyogenes SKKanGAS, kanamycin survival, BacTiterGlo, 6 h
Assay: S. pyogenes SKKanGAS kanamycin growth inhibitors – SKKanGAS strain, luminescence, dose confirmation, streptokinase promoter inhibitor project, dose response (AID 1902);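 note: lower survival reflects blocked streptokinase promoter driving kanamycin resistance gene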

Example entries begin here.
compound=COc1ccc(NC(=S)NNc2ccc([N+](=O)[O-])cc2S(=O)(=O)Nc2ccc(C)cc2C)cc1 recorded_metric=EC50 result="8.34 µM"
compound="CCC1(C)Cc2ccccc2-c2c1c(=O)n(Cc1ccccc1)c1nnnn21 (configuration not stated)" recorded_metric=EC50 result="1.51 µM"
compound=O=Nc1c2cc(-c3ccccc3)[nH]nc-2c2ccccc12 recorded_metric=EC50 result="6.43 µM"
compound=O=C(CSc1nc2ccccc2c(=O)n1NC(=O)c1ccccc1)c1ccc(Cl)cc1 recorded_metric=EC50 result="11.3 µM"
compound="NS(=O)(=O)c1ccc(N2N=C(c3ccc(Br)cc3)CC2c2ccc(F)cc2)cc1 (configuration not stated)" recorded_metric=EC50 result="2.21 µM"
compound=CCOC(=O)c1sc(Nc2nc3ccc(OC)cc3s2)cc1C recorded_metric=EC50 result="2.95 µM"
compound="CC(C)C(=O)NC(c1ccco1)c1ccc2cccnc2c1O (configuration not stated)" recorded_metric=EC50 result="2.44 µM"
compound="Oc1ccccc1/C=N/NC(=S)NC1CC2C=CC1C2 (configuration not stated)" recorded_metric=EC50 result="5.69 µM"

Recorded EC50 of `COc1cc(C(=O)NC(=S)Nc2ccc(Cc3ccncc3)cc2)cc(OC)c1OC` , please.
2.45 µM

Recorded EC50 of `CCN(CC)S(=O)(=O)c1cc(OC)ccc1N=Nc1ccc(O)c2ncccc12` , please.
1.92 µM

Recorded EC50 of `O=C1/C(=N\S(=O)(=O)c2cccs2)C([n+]2cccc(Cc3ccccc3)c2)=C([O-])c2ccccc21` , please.
1.68 µM

Recorded EC50 of `COc1ccc(Oc2nc(-c3ccccn3)ncc2OC)cc1` , please.
1.45 µM

Recorded EC50 of `S=C(NCC1CCCCC1)Nc1ccc(Oc2ccccc2)cc1` , please.
11 µM

Recorded EC50 of CC(=O)NC(c1ccc(C)cc1)c1cc(Cl)c2cccnc2c1O (configuration not stated) , please.
1.42 µM

Recorded EC50 of `O=[N+]([O-])c1ccc(-c2cnc(SC(c3ccccc3)c3ccccc3)[nH]2)cc1` , please.
11 µM
